Assign pEC50 to each entry below.
Biological target: hPPARγ (Homo sapiens, UniProt P37231)
Sequence (P37231 238-503 limits assumed): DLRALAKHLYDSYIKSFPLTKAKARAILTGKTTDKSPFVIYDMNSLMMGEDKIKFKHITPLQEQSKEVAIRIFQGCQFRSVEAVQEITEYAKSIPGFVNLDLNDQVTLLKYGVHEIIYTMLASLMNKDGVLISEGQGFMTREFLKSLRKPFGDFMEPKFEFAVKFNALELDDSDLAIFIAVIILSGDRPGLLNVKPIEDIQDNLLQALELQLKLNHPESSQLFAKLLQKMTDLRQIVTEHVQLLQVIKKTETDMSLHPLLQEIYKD
Assay: GAL4-hPPAR transactivation assay (PPARγ)
Details: HEK293T cells, pFA-hPPARγ/GAL4 + pFR-SEAP reporter, about 48 hours
Structures can show the parent of a compound that is named as a salt.
Give bare numbers, as −log10 of the molar value.

Cc1oc(-c2cccc(Br)c2)nc1CN(Cc1ccncc1)Cc1ccc(OC(C)(C)C(=O)O)cc1; 6.74
Cc1cc(CN(Cc2ccco2)Cc2sc(-c3ccc(C(F)(F)F)cc3)nc2C)ccc1OC(C)(C)C(=O)O [SKB-compd, reference compound]; 7.32

Your task in this section: give pEC50 for each listed record.
1. Cc1cc(CN(Cc2ncco2)Cc2nc(-c3ccccc3)oc2C)cc(C)c1OC(C)(C)C(=O)O
2. Cc1oc(-c2cccc(Br)c2)nc1CN(Cc1ccc(OC(C)(C)C(=O)O)cc1)Cc1nccs1 [Example 1-(2), hydrochloride]
3. Cc1nnc(CN(Cc2cc(C)c(OC(C)(C)C(=O)O)c(C)c2)Cc2nc(-c3ccccc3)oc2C)o1
4. Cc1cc(CN(Cc2nccs2)Cc2nc(-c3ccccc3)oc2C)cc(C)c1OC(C)(C)C(=O)O
5. Cc1noc(CN(Cc2cc(C)c(OC(C)(C)C(=O)O)c(C)c2)Cc2nc(-c3ccccc3)oc2C)n1

1. 8.26
2. 6.23
3. 7.48
4. 8.06
5. 8.16

Any idea what its pEC50 is? The molecule is Cc1oc(-c2cccc(Br)c2)nc1CN(Cc1ccc(OC(C)(C)C(=O)O)cc1)Cc1cscn1 [Example 5-(2), hydrochloride]
6.66
